These entries and their values trace back to ChEMBL document CHEMBL1961873.

system: Phosphorylase b kinase gamma catalytic chain, skeletal muscle/heart isoform (Homo sapiens) (UniProt Q16816);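 also: values are averaged percent inhibition of PHKG1 kinase activity, from the GSK PKIS inhibitor-set screen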
Sequence (Q16816 whole entry, looked up, canonical isoform): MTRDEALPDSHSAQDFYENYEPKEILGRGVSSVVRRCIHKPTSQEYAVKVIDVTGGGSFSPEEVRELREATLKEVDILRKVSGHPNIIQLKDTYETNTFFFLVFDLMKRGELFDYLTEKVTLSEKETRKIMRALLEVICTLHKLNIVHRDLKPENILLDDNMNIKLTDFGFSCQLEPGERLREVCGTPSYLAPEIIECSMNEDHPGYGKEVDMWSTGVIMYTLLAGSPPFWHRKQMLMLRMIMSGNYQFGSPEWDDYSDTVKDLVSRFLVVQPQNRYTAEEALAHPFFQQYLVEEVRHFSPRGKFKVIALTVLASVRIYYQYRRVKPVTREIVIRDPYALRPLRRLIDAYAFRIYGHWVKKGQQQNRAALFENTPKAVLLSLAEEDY
setup conditions: at 0.1 µM
assay endpoint: inhibition (%)
Give just the number in %; leave the unit off.

{"compound structure string": "COc1ccc(-c2cc3c(N)ncnc3o2)cc1", "observed value": 0.47}

In: Which inhibition is reported for this compound? `COc1cc(N2CCN(C(C)C)CC2)ccc1Nc1nc(Nc2ccc(F)cc2C(N)=O)c2cc[nH]c2n1`
Out: 58.2

In: For the compound `[O-][S+]1CCN(Cc2ccc(-c3ccc4ncnc(Nc5ccc(OCc6cccc(F)c6)c(Cl)c5)c4c3)o2)CC1` , what inhibition is on record?
Out: 5.93

In: Reported inhibition for `CN(C)CCOc1ccc(-c2nc(-c3ccncc3)c(-c3ccc4c(c3)CC/C4=N\O)[nH]2)cc1` : what is it?
Out: 1.18

In: Suppose we examine the compound `c1ccc(COc2ccc(Nc3ncnc4ccc(-c5ccco5)cc34)cc2)cc1` ; what inhibition value has been reported?
Out: 4.05

In: Field request: inhibition | item: `CCn1c(-c2nonc2N)nc2c(C#CC(C)(C)O)ncc(OC3CCNCC3)c21`
Out: 1.52

In: For `CNC(=O)c1cccc(C#Cc2cncnc2Nc2ccc(OCc3cccc(F)c3)c(Cl)c2)c1` , what is its reported inhibition?
Out: -2.47

In: # lookup: inhibition of `Cc1ccc2c(-c3ccnc(Nc4ccccc4)n3)c(-c3ccc(F)cc3)nn2n1`
Out: 1.5

In: Give its inhibition value. Item: `CCOc1ccc2c(-c3ccnc(Nc4cccc(C(F)(F)F)c4)n3)cnn2n1`
Out: 2.65

====

Measured inhibition accompanies every entry in the list below.
system: Inhibitor of nuclear factor kappa-B kinase subunit beta (Homo sapiens);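 also: reported as mean inhibition, from the GSK PKIS screening set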
setup conditions: at 1 µM
Reply with just the number (in %).

The following compounds have reported results that may help.
{"compound structure string": "COc1cc(/C=N/Nc2ncnc3[nH]ncc23)ccc1O", "units": "%", "observed value": 13.6}
{"compound structure string": "Nc1ncc(-c2cccc(S(N)(=O)=O)c2)c2scc(-c3ccc(F)c(Cl)c3)c12", "units": "%", "observed value": 5.65}
{"compound structure string": "COc1ccc(-c2nn3ncccc3c2-c2ccnc(Nc3ccc4c(c3)OCCO4)n2)cc1", "units": "%", "observed value": 1.7}
{"compound structure string": "COc1ccc(CNC(=O)c2ccc(-c3cc(-c4nnc(C)o4)ccc3C)cc2)cc1", "units": "%", "observed value": 4.56}

In: Give its inhibition value. Item: `Cc1cccc(Nc2ncc(-c3ccccc3)o2)c1`
Out: 5.08

In: Quick one: inhibition of `CCn1c(-c2nonc2N)nc2ccccc21` ?
Out: -1

In: Given the entry `N#Cc1c(NC(=O)CN2CCOCC2)sc2c1CCCC2` , report its measured inhibition.
Out: 5.09

In: Entry `COc1cc2c(cc1Nc1nc(Nc3ccsc3C(N)=O)c3cc[nH]c3n1)N(C(=O)CN(C)C)CCC2(C)C` has what inhibition?
Out: 6.07

In: Quick one: inhibition for `O=S(=O)(CCNCc1ccc(-c2ccc3ncnc(Nc4ccc(OCc5cccc(F)c5)c(Cl)c4)c3c2)o1)c1ccccc1` ?
Out: 7.07

In: Form field: reported inhibition of `CNC(=O)c1cccc(C#Cc2cncnc2Nc2ccc(OCc3cccc(F)c3)c(Cl)c2)c1`
Out: -0.35

====

Measured inhibition, listed per entry for reference.
system: Serine/threonine-protein kinase TBK1 (Homo sapiens) (UniProt Q9UHD2);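 also: values are mean inhibition of TBK1, screened as part of the GSK published kinase inhibitor set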
Sequence (whole entry): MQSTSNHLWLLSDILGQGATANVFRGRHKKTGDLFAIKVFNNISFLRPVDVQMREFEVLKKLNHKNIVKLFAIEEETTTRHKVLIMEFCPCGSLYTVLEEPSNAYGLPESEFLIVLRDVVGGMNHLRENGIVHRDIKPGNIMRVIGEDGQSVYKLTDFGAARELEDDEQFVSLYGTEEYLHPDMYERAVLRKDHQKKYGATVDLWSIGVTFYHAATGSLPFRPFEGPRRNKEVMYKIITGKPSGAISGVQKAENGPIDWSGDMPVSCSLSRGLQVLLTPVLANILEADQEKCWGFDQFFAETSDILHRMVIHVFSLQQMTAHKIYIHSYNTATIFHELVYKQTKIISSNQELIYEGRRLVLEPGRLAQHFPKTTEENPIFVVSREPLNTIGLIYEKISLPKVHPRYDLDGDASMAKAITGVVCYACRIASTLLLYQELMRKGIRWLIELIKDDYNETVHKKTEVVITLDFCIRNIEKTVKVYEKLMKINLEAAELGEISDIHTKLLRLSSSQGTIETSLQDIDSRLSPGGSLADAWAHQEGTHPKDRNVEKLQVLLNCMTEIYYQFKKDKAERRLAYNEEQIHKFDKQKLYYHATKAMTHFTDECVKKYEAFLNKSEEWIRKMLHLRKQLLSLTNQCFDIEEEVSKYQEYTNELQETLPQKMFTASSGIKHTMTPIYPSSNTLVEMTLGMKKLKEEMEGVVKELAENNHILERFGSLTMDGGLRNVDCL
setup conditions: at 1 µM
// units = %; emit number, no label

{"compound structure string": "CN(C)CCOc1ccc(-c2nc(-c3ccncc3)c(-c3ccc4c(c3)CC/C4=N\\O)[nH]2)cc1", "inhibition / %": 3.98}
{"compound structure string": "FC(F)(F)c1cccc(-c2nn3ncccc3c2-c2ccnc(Nc3ccc4c(c3)OCCO4)n2)c1", "inhibition / %": 2.28}
{"compound structure string": "Fc1ccc(-c2nn3ccccc3c2-c2ccncc2)cc1", "inhibition / %": 0.18}
{"compound structure string": "CS(=O)(=O)CCNCc1ccc(-c2ccc3ncnc(Nc4ccc(OCc5ccccc5)c(C(F)(F)F)c4)c3c2)o1", "inhibition / %": 1.05}
{"compound structure string": "CC(=O)Nc1cccc(C#Cc2cncnc2Nc2ccc(OCc3cccc(F)c3)c(Cl)c2)c1", "inhibition / %": 3.45}

In: # query: inhibition of entry `CCn1c(-c2nonc2N)nc2c(C#CC(C)(C)O)ncc(OC3CCNCC3)c21`
Out: 45.9

In: Which inhibition is reported for this compound? `N#Cc1c(NC(=O)CN2CCOCC2)sc2c1CCCC2`
Out: 4.24

In: Requested field: inhibition. Item: `Cc1cccc2c1NC(=O)/C2=N\Nc1ccc(S(N)(=O)=O)cc1`
Out: 3.42

In: Tell me the measured inhibition of `CC(C)COC(=O)c1ccc2c(c1)/C(=C/Nc1ccc(S(N)(=O)=O)cc1)C(=O)N2` , please.
Out: 82.9

In: // lookup inhibition for `c1cc(-c2cnn3nc(N4CCOCC4)ccc23)nc(NC2CC2)n1`
Out: 6.36

====

system: Receptor tyrosine-protein kinase erbB-2 (Homo sapiens)
setup conditions: at 1 µM
Description: GSK_PKIS: ERBB2 mean inhibition at 1 uM [Nanosyn]
assay endpoint: inhibition (%)
Give a bare numeral; the unit % is implied.

{"compound structure string": "CCn1c(-c2nonc2N)nc2c(C#CC(C)(C)O)nc(OC[C@H](N)c3ccccc3)cc21", "assay endpoint": "inhibition", "observed value": 3.43}
{"compound structure string": "c1ccc(-c2nc3n(c2-c2ccc4c(c2)OCO4)CCC3)nc1", "assay endpoint": "inhibition", "observed value": -0.6}
{"compound structure string": "CS(=O)(=O)CCNCc1coc(-c2ccc3ncnc(Nc4ccc(OCc5ccccc5)cc4)c3c2)c1", "assay endpoint": "inhibition", "observed value": 59}
{"compound structure string": "CNC(=O)c1cncc(/C=C/c2ccccc2Cl)c1", "assay endpoint": "inhibition", "observed value": 5.61}
{"compound structure string": "COC(=O)Nc1nc2ccc(Oc3ccc(NC(=O)Nc4cccc(Cl)c4)cc3)cc2[nH]1", "assay endpoint": "inhibition", "observed value": 5.3}

With those in mind, consider the next molecule.
In: Given the entry `COc1ccc(-c2cc(-c3c[nH]nc3-c3ccccn3)ccn2)cc1` , what inhibition was observed with Receptor tyrosine-protein kinase erbB-2 (Homo sapiens)?
Out: 6.13

====

system: Rho-associated protein kinase 2 (Homo sapiens);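 also: values are averaged inhibition readings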
setup conditions: at 0.1 µM
Below is a list of entries, each paired with its recorded inhibition value.
Dear colleague, please return just the value in %, with no unit written.

Reference set (5 entries):
{"compound structure string": "COc1cc(N2CCN(C(C)C)CC2)ccc1Nc1nc(Nc2ccc(F)cc2C(N)=O)c2cc[nH]c2n1", "assay endpoint": "inhibition", "observed value": 4.69}
{"compound structure string": "Cc1cccc(Nc2ncc(-c3ccccc3)o2)c1", "assay endpoint": "inhibition", "observed value": 2.08}
{"compound structure string": "Cc1cccc2c1NC(=O)/C2=N\\Nc1ccc(S(N)(=O)=O)cc1", "assay endpoint": "inhibition", "observed value": 3.93}
{"compound structure string": "CN1CCC(n2cnc(-c3ccc(F)cc3)c2-c2ccnc(Nc3ccccc3)n2)CC1", "assay endpoint": "inhibition", "observed value": 0.82}
{"compound structure string": "Nc1nc(-c2cccc(Cl)c2)c(-c2ccc3ncccc3n2)s1", "assay endpoint": "inhibition", "observed value": 4.39}

Let us move to another entry and its inhibition.
In: So what does the record say about inhibition for `COC(=O)Nc1nc2ccc(Oc3ccc(NC(=O)Nc4cccc(Cl)c4)cc3)cc2[nH]1` ?
Out: 2.53
